Target: T1, human insulin receptor (human, UniProt P06213 28-1382)
T1 construct: whole, on cells; receptor-transfected HEK293 cells in the phosphorylation assay
Experiment: competition SPA, [125I]insulin
pIC50: −log10 of the molar value.

{"columns": ["Binder", "pIC50"],
 "data": [
  ["IGF1 (Y^B16L^B17) (ligand, also called IGF analog IGF1 (Y^B16L^B17)) chain 1: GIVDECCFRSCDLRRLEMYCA chain 2: GPETLCGAELVDALYLVCGDRGFYFNKPT", 9.29]
]}

Cited source: patent US20150274802A1
